target.desc: Human fibrinogen receptor (αIIb β3) (Homo sapiens, UniProt P05106+P08514)
Construct: Human fibrinogen receptor (αIIb β3) was purified from outdated platelets
Sequence (P08514 32-887 limits assumed): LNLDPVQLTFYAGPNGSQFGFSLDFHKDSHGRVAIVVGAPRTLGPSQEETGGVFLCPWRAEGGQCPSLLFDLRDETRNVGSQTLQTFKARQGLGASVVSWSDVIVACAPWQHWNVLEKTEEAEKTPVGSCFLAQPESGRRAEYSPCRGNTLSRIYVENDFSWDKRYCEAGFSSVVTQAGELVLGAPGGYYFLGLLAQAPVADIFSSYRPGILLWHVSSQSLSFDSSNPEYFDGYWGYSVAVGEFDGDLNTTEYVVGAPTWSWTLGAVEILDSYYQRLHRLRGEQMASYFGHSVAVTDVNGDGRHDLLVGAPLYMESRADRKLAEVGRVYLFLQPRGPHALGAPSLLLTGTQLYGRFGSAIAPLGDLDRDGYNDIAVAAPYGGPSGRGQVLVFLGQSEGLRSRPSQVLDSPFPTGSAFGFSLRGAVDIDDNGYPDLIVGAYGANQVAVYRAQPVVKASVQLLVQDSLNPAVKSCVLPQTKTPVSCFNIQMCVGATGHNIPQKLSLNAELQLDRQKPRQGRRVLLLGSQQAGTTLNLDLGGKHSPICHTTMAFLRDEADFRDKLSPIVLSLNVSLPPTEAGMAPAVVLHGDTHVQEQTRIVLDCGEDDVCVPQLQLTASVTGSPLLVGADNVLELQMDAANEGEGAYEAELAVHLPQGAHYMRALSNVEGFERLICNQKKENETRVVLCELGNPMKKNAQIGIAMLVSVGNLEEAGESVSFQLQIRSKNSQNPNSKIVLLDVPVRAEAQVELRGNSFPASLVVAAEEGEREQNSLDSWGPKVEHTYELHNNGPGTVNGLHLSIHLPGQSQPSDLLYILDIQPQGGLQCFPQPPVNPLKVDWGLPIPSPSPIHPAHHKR
Sequence (P08514 891-1039 limits assumed): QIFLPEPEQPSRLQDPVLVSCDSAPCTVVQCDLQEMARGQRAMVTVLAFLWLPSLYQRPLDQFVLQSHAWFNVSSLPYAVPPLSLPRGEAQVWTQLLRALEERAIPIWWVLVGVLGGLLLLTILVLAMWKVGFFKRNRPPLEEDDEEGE
Sequence (P05106 27-788): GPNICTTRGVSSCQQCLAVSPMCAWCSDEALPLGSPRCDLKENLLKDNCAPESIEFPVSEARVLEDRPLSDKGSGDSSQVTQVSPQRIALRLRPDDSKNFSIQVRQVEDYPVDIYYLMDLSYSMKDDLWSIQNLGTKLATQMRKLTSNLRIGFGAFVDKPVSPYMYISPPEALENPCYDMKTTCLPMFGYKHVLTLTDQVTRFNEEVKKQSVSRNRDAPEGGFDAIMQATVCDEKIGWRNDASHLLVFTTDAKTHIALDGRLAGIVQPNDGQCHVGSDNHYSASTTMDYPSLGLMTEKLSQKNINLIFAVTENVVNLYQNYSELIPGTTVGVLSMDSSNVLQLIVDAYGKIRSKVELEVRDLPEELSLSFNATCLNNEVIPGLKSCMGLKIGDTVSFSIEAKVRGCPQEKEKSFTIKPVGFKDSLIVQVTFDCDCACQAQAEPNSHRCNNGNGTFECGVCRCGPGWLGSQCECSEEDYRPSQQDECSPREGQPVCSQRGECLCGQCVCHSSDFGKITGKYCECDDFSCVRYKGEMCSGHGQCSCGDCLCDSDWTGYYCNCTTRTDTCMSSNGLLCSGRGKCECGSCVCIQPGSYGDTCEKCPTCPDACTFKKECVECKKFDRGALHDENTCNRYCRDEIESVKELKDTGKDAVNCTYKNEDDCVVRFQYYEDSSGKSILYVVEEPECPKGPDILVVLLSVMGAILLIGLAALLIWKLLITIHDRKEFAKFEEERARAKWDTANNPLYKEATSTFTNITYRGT
experiment.summary: Purified IIb/IIIa receptor assay (solid phase receptor assay)
particulars: inhibition of binding of biotinylated human vitronectin (1 nM) to purified receptor; Table I
Structures can show the parent of a compound that is named as a salt.
measurement.kind: IC50 (µM)
Express your answer in µM, writing the number without its unit.

- molecule: "N=C(N)Nc1cccc(C(=O)NCc2cccc(/C=C/C(=O)O)c2)c1 [Example 2, trifluoroacetate salt]"
  target.desc: "Human fibrinogen receptor (αIIb β3) (Homo sapiens, UniProt P05106+P08514)"
  measurement.unit: "µM"
  value: 0.657

So, N=C(N)Nc1cccc(C(=O)Nc2ccc(/C=C/C(=O)O)cc2C(F)(F)F)c1 [Example 12, trifluoroacetate salt] ? Its IC50 was 0.67

So, CCc1cc(/C=C/C(=O)O)ccc1NC(=O)c1cccc(NC2=NCCN2)c1 [Example 21, trifluoroacetate salt] ? Its IC50 was 0.125

So, O=C(O)/C=C/c1cccc(C(=O)COc2cccc(NC3=NCCN3)c2)c1 [Example 83, trifluoroacetate salt] ? Its IC50 was 10

So, N=C(N)Nc1cccc(C(O)CNc2cccc(/C=C/C(=O)O)c2)c1 (centres unmarked) [Example 81, hydrate] ? Its IC50 was 5.02
